# assay_target: PARP14 MD2 (Homo sapiens)
# Sequence (Q460N5 1003-1190 limits assumed): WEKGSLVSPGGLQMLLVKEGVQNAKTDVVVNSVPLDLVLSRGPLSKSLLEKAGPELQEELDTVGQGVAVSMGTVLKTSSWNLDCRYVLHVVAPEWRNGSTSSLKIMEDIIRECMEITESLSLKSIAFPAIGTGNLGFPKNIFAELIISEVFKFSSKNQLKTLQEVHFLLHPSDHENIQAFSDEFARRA
# method_notes: AlphaScreen competitive binding assay, displacement of ADP-ribose peptide from PARP14 MD2
# Set-up: PARP14 MD2 (second MD of PARP14)
# condition_context: Table 2; AlphaScreen, PARP14 MD2; read-out: IC50
// NB: equality with 4 µM counts as not satisfied; only IC50 strictly below is satisfied

> print(dat)
                                  mol.smiles  assigned.label
 1  O=C(Cc1ccc(F)cc1)Nc1ccccc1-c1cccc2c1[nH]c1ccccc12   not satisfied
 2  Cc1ccc(C)c(CC(=O)Nc2ccccc2-c2cccc3c2[nH]c2ccccc23)c1   not satisfied
 3  O=C(Cc1ccc2c(c1)OCO2)Nc1ccccc1-c1cccc2c1[nH]c1ccccc12   not satisfied
 4  N#Cc1ccc(F)c(CS(=O)(=O)Nc2ccccc2-c2cccc3c2[nH]c2ccccc23)c1       satisfied
 5  O=C(Cc1cccc(C(F)(F)F)c1)Nc1ccccc1-c1cccc2c1[nH]c1ccccc12   not satisfied
 6  O=C(Cc1cccc(F)c1)Nc1ccccc1-c1cccc2c1[nH]c1ccccc12   not satisfied
 7  O=C(Cc1ccc(Cl)c(Cl)c1)Nc1ccccc1-c1cccc2c1[nH]c1ccccc12   not satisfied
 8  O=C(Cc1ccccc1Cl)Nc1ccccc1-c1cccc2c1[nH]c1ccccc12   not satisfied
 9  N#Cc1ccc(CS(=O)(=O)Nc2ccccc2-c2cccc3c2[nH]c2ccccc23)cc1   not satisfied
10  O=C(Cc1ccc(Cl)cc1)Nc1ccccc1-c1cccc2c1[nH]c1ccccc12   not satisfied
11  N#Cc1cccc(CC(=O)Nc2ccccc2-c2cccc3c2[nH]c2ccccc23)c1       satisfied
12  Cc1ccc(CC(=O)Nc2ccccc2-c2cccc3c2[nH]c2ccccc23)cc1   not satisfied
13  O=S(=O)(Cc1ccccc1F)Nc1ccccc1-c1cccc2c1[nH]c1ccccc12       satisfied
14  N#Cc1cc(CC(=O)Nc2ccccc2-c2cccc3c2[nH]c2ccccc23)ccn1       satisfied
